compounds and their reported GI50
# System: NCI/ADR-RES
# protocol_summary: NCI tumour cell line growth inhibition, 48 h
Activity calls are given as the source filed them. Cut-off read from the data, not from the text of the source: active = GI50 up to about 1.1 µM and inactive = higher.

O=C(O)C(=Cc1ccc(-c2ccc([N+](=O)[O-])cc2)o1)C(=O)O    > 100 µM (inactive)

Quote GI50 reported for CC1(C)SC2C(C(=O)O)N=C(Cc3ccccc3)N2C1C(=O)O (stereo unspecified) please.
33.9 µM (inactive)

Quote GI50 reported for `C1CCCCC2(CCCCCCCCC3(CCC1)SCCS3)SCCS2` please.
> 100 µM (inactive)

Quote GI50 reported for COc1ccc2cc(C(C)C(O)c3cc(F)c(F)c(F)c3F)ccc2c1 (stereo unspecified) please.
97.9 µM (inactive)

Quote GI50 reported for `CC(C)(C)C1(COC(=O)c2ccc(N)cc2)COC1` please.
58.3 µM (inactive)

Quote GI50 reported for [O-][S+](Nc1ccccc1)c1ccc(N2CCOCC2)cc1 (stereo unspecified) please.
51.9 µM (inactive)

Quote GI50 reported for `Cc1cn2c(/C=N/NC(=N)N)c(-c3cccc([N+](=O)[O-])c3)nc2s1` please.
28.4 µM (inactive)

Quote GI50 reported for `COC(=O)c1c2n(c3ccccc13)C[C@H]1OC(C)(C)O[C@@H]21` please.
> 100 µM (inactive)

Quote GI50 reported for `Cc1ccc(C(=O)O)cc1S(=O)(=O)Nn1cnc2ccc(S(=O)(=O)Nc3ccccc3C(=O)O)cc2c1=O` please.
> 100 µM (inactive)

Quote GI50 reported for CC(C)(CN1CCCCC1)C(=O)CC(SCCS(=O)(=O)O)c1ccc(Cl)cc1 (stereo unspecified) please.
5.97 µM (inactive)

Quote GI50 reported for `Cn1c(=O)c2[nH]c(CCC(=O)O)nc2n(C)c1=O` please.
> 100 µM (inactive)
